Test: Components of the Cytosolic LPS Sensing Pathway: Gene Identification via Genome-wide siRNA Screen;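 also: robust z of the log signal after scaling to non-targeting control siRNA wells of the plate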
Settings: RAW264.7 macrophages, IL-1a HTRF, actives lie on both sides, screened at 100 nM (by protocol), cells primed 5 h with Pam3CSK4 first
Out of some 53,000 sequences screened, about 3,700 (7%) were called active.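 The calls were made as follows: active = gene knockdowns whose robust z-score for IL-1 alpha signal is at least 2 or at most -2, so actives lie on both sides; inactive = the rest.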 Only a selection was taken, and actives are over-represented in it overall.
Outcomes: Yes = active, No = inactive

sequence.content	assigned.category
GGAGGAAAGUUGUAUUUGATT against Nudt7	No
GGCAACUGUGUUCUCACGATT against Ddx58	No
GGCAAUCCCAUAGAGGCUGTT against Mief2	Yes
GGAGGACUCUGCUUCCAUATT against Pwwp3b	No
GGCAGUCAAUAGUGGCCUGTT against Bcor	No
CCUAUCAUAACGGUGAUAATT against Ddb1	No
CCCUCUGAACUAUAUGACUTT against Olfr700	No
GGCUGAGAAAACCAAAGGGTT against Cfdp1	No
GGAAGGGCAAGUUAUGAAATT against Fgf14	No
CGUAUAUCGAUGAAGAUGATT against BC016579	No
GGUACAAACUCUCCCUAGATT against Ube2c	No
GGCGUAUACCGGGAAUCCUTT against Ndrg1	No

---

Test: Components of the Cytosolic LPS Sensing Pathway: Gene Identification via Genome-wide siRNA Screen;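 also: robust z of the log signal after scaling to non-targeting control siRNA wells of the plate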
Settings: RAW264.7 macrophages, IL-1a HTRF, actives lie on both sides, screened at 100 nM (by protocol), cells primed 5 h with Pam3CSK4 first
Out of some 53,000 sequences screened, about 3,700 (7%) were called active. This is one part of a sample in which actives are shown more often than they occur.
# key: entry, value: z-score

sequence.content	z-score
GGAUGAAUGGAAUUUACUGTT against Fbh1	0.406
GGAGGUGGAACAAAUAUUUTT against Emc6	0.361
GGUGUUAGAUUCUUUGUAATT against Cst6	2.04
GGUCUCAUUUCAAAUGGUUTT against Lonrf3	0.63
GGACUGUACUAUGGCUCUCTT against Nt5m	0.135
CGGGUAAUAAGGAUUUGGGTT against Cadm4	2.05

---

Assay: Components of the Cytosolic LPS Sensing Pathway: Gene Identification via Genome-wide siRNA Screen;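 also: robust z of the log signal after scaling to non-targeting control siRNA wells of the plate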
Conditions: RAW264.7 macrophages, IL-1a HTRF, actives lie on both sides, screened at 100 nM (by protocol), cells primed 5 h with Pam3CSK4 first
The campaign covered roughly 53,000 sequences. About 3,700 (7%) were called active. The full list was thinned out, with actives kept by preference.

sequence.content	z-score
CCUACCAAAACGACUAUAUTT against Pnma3	-1.29
GGAUGUGGAGUCACUGAUGTT against Ccdc91	-0.863
CCUGAGUCUCGGUUCACAATT against Kif12	-2.13
GCCAUAGGAGUGAUUGGAUTT against E130018O15Rik	-1.66
GCCGUAUUCAUUAAUAAAGTT against Ash1l	0.0753
GGAAAGAGCAAACAGUUCCTT against Il1f6	-2.09

---

Assay: Components of the Cytosolic LPS Sensing Pathway: Gene Identification via Genome-wide siRNA Screen;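 also: robust z of the log signal after scaling to non-targeting control siRNA wells of the plate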
Details: RAW264.7 macrophages, IL-1a HTRF, actives lie on both sides, screened at 100 nM (by protocol), cells primed 5 h with Pam3CSK4 first
Out of some 53,000 sequences screened, about 3,700 (7%) were called active. This excerpt belongs to a sample that is enriched for actives.
quantity.kind: z-score

sequence.content	assay.result
CGAUUCCAACAAGAAAGUGTT against Togaram2	0.649
CCUACUACACCACUUGGGUTT against Dpm2	0.365
CCCUUUUGUUUAGCUGAUCTT against Glrp1	-2.14
GGGAUAAAUAUGAAGAAAGTT against Tacc2	-1.46
CCGCAUGGAGCAUCUAAUATT against Tuft1	0.04
GGUGCUGUUGAAUUGUGGGTT against Wdr77	-0.366
GUUCCUCAGUAUGUUGCCATT against Olfr126	-2.85
GGCUUUUUCCACAUGUGCCTT against Olfr514	-2.29
CGAGCUUGCUAUCGGGAAGTT against Defb7	-0.902
CCUAGAGCCGUGUGCAUACTT against Plp2	0.891
GGCUUUGAAACAUAAGAACTT against Zfp472	-0.553
GGUGAAAACAAUGACUUUGTT against Zbtb44	0.256
GGAACUUUAUGUCUCCUACTT against Lrrc56	-0.988
CCUUCUACCUACUUAUUGGTT against Tomm70a	0.178
GAGUGUCCGAUAGACCGUUTT against Rbm4	-0.429
GGUGGUGAGAUAGAGAAAUTT against C1qc	-0.115
GGAAGAUCCUCGAUAGUCATT against Rgs7	1.2
CCUCAAUUGGAUAAAGAAGTT against Gzma	1.7
CCAGCACGCUGAAGUCUGATT against Adam19	1.21
GCAAUCUAUAAGAGGUACATT against Axin2	1.79
GAGCCACUUUCUCAAGUGUTT against Pou3f1	3.02
CGAAAAAAAUCCAAGUCAATT against Akap12	-0.28
GGAAGGAGGGUAUGUGGUUTT against Lgals9	-0.346
GUUACUACAACAGCUACUATT against Krtap19-4	-2.37
GCCUGUCAUGGUUAUGACCTT against Shbg	-0.803
